These entries and their values trace back to PubChem BioAssay (NCI).

Experiment: NCI Yeast Anticancer Drug Screen. Data for the sgs1 mgt1 strain (AID 161);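 further: 0% = growth of cultures given vehicle only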
Details: S. cerevisiae sgs1 mgt1 strain, at 50.0 µM (retest, dose inferred, filed as 5.0)
Method: Growth inhibition of yeast strains with defined genetic alterations is measured as a screen for potential anti-cancer activity. Selected strains with alterations in DNA damage repair or cell cycle control were exposed to compounds and growth inhibition was measured relative to vehicle treated controls. The strain used in this assay is sgs1 mgt1
About 79,000 compounds went through this panel and 15% of them were active in at least one assay; those are over-represented in the sample as a whole. Calls of active or inactive are those of the source. No stated cut-off is given here; in the data, active means growth inhibition above about 70%; inactive means the rest.
Outcome codes: active, inactive

# MOLECULE, ASSIGNED LABEL
data = [
    ("CC(=O)C1C(S)CC2C3CC=C4CC(O)CCC4(C)C3CCC21C (stereo not given)", "active"),
    ("COc1cc(C2c3cc4c(cc3[C@@H](Nc3ccc5c(c3)OCCO5)C3COC(=O)[C@H]23)OCO4)cc(OC)c1O (stereo not given in full)", "active"),
    ("O=C(Nc1ccccc1)c1cc(Cl)ccc1O", "inactive"),
    ("CC1=NN(C(=O)c2ccc(Cl)cc2)C(=O)C1N=Nc1ccc(S(=O)(=O)Nc2ncccn2)cc1 (stereo not given)", "inactive"),
    ("c1ccc2c(c1)Nc1cc3ccccc3cc1N2", "inactive"),
    ("C=C1C[C@@]2(OC)OCC[C@H]3C(C)=CCC(C1=O)[C@]32C(=O)OC (stereo not given in full)", "active"),
    ("O=C(CN(Cc1ccccc1)Cc1ccccc1)c1ccccc1", "inactive"),
    ("C=C1C(=O)OC2CC1C(O)C/C(C)=C/CC/C(C)=C/C(O)CC2C (stereo not given)", "inactive"),
    ("CC1CC[N-]CC1.CC1CC[N-]CC1.CC1CC[N-]CC1.CC1CC[N-]CC1.CS(C)=O.CS(C)=O.[Cl-].[Cl-].[Cl-].[Cl-].[Pt+4].[Rh+3]", "active"),
    ("O=S(=O)(c1ccc(OCC(O)COc2ccc(S(=O)(=O)c3ccc(OCC4CO4)cc3)cc2)cc1)c1ccc(OCC2CO2)cc1 (stereo not given)", "inactive"),
    ("CCOC(=O)C[n+]1c(C)cc(-c2ccccc2)cc1C", "inactive"),
    ("CCOc1c(Br)cc(Br)cc1/C=N/NS(=O)(=O)c1ccc(C)cc1", "active"),
    ("CCC(C(=O)C(C)C(O)C(C)CCc1ccc(C)c(O)c1C(=O)O)C1OC(CC)(C2CCC(O)(CC)C(C)O2)CC1C (stereo not given)", "active"),
    ("O/N=C/c1cc(Cl)cc(Cl)c1O", "inactive"),
    ("COc1ccc(-n2c(=O)c3[nH]c(=S)[nH]c3n(-c3ccc(OC)cc3)c2=S)cc1", "inactive"),
    ("COC(=O)[C@@]12OC[C@]34[C@H]([C@@H](O)[C@@H]1O)[C@@]1(C)[C@H](O)C(=O)C=C(C)[C@@H]1C[C@H]3OC(=O)C(OC(C)=O)[C@@H]24 (stereo not given in full)", "active"),
    ("O=C1CC(=S)NC(=S)N1", "inactive"),
    ("O=C(Oc1cccc2cccnc12)c1ccccc1", "active"),
    ("O=C1C=CC(=O)c2c(O)c(N3CCC[C@H]3CO)c(Cl)c(O)c21", "active"),
    ("COC1C=COC2(C)Oc3c(C)c(O)c4c(O)c(c(C5SCCS5)c(O)c4c3C2=O)NC(=O)C(C)=C/C=C\\C(C)C2OC(C)(C)OC(C2C)C(C)C(OC(C)=O)C1C (stereo not given)", "inactive"),
]

----------
experiment: NCI Yeast Anticancer Drug Screen. Data for the sgs1 mgt1 strain (AID 161);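 further: 0% = growth of cultures given vehicle only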; settings: S. cerevisiae sgs1 mgt1 strain, at 50.0 µM (retest, dose inferred, filed as 5.0), hits give high values
The panel holds about 79,000 compounds, 15% with a hit somewhere; the sample as a whole holds those more often.
EXPERIMENTAL ENDPOINT: growth inhibition (%)

# COMPOUND, UNIT ANNOTATION, ASSAY VALUE
data = [
    ("O=[N+]([O-])c1ccc(Cc2nc3ccccc3s2)cc1", "%", 96),
    ("C[n+]1c(-c2cccc(OCCCCCCCCOc3cccc(-c4c5cc(N)ccc5c5ccc(N)cc5[n+]4C)c3)c2)c2cc(N)ccc2c2ccc(N)cc21", "%", 98),
    ("Cc1ccc(C)c(NC(=O)CCC(=O)C(C#N)c2cccc3ccccc23)c1 (stereo unspecified)", "%", -4),
    ("O=C1Nc2ccccc2NC(=O)C(=C(c2ccccc2)c2ccccc2)C1=C(c1ccccc1)c1ccccc1", "%", 98),
    ("COCC1C(=O)c2cc3c(cc2C12C=CC1(C=C2)OCCO1)OCO3 (stereo unspecified)", "%", -2),
    ("OC[P+](CO)(CO)C12CC3CC(CC(C3)C1)C2", "%", 49),
    ("CC(=O)OC1CCC2(C)C3CCC4(C)C(C(C)CCCC(C)C)CCC4C3CCC23OC13C (stereo unspecified)", "%", 52),
    ("O=C(/C=C\\c1cc(Br)ccc1O)/C=C/c1cc(Br)ccc1O", "%", 91),
    ("O=C1CCCC/C1=C(\\Br)I", "%", 100),
    ("N#Cc1ccc([N+](=O)[O-])o1", "%", 93),
    ("CCCC(=O)Oc1ccc(-c2ccccc2Br)cc1", "%", 44),
]

----------
growth inhibition reference
experiment: NCI Yeast Anticancer Drug Screen. Data for the sgs1 mgt1 strain (AID 161);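 further: 0% = growth of cultures given vehicle only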; conditions: S. cerevisiae sgs1 mgt1 strain, at 50.0 µM (retest, dose inferred, filed as 5.0), hits give high values
This is part of a sample that, as a whole, favours compounds with a hit. Of some 79,000 tested, about 15% had one in any assay.

# COMPOUND, growth inhibition / %
rows = [
    ("CCOc1ncc(Cl)c(OCC)n1", -6),
    ("O=C(Nc1c(Cl)cccc1Cl)Oc1cccc2cccnc12", 99),
    ("Cn1cc(/C=C/[N+](=O)[O-])c2ccc(OCc3ccccc3)cc21", 4),
    ("COc1ccc(C(SCC(N)C(=O)O)(c2ccc(OC)cc2)c2ccc(OC)cc2)cc1 (stereo not given)", 99),
    ("COc1ccc(C(=O)Nc2ccc(O)c(=O)cc2)cc1", 66),
    ("NNC(=O)NN=C(c1ccccc1)c1ccccc1", 0),
    ("CC[n+]1c(/C=C/c2cc(C(=O)OC)n3c2sc2ccccc23)sc2ccccc21", 99),
    ("Cc1cccc(/C=N/Nc2cc(C)c3ccccc3n2)n1", 96),
    ("CCC(=O)c1ccc2ccc3ccccc3c2c1", 72),
    ("O=C1OC2(Cc3ccccc31)c1ccccc1-c1ccccc12", 38),
    ("O=C(O)c1ccc2c(c1)CC1(C2)Cc2cc3c(cc2C1=O)CCC3 (stereo not given)", 19),
    ("c1ccc(NCCSc2nc3ccccc3s2)cc1", 80),
    ("CS(=O)(=O)c1nc(Cl)c(Cl)c(C#N)c1Cl", 99),
    ("O=C1NC(=O)N(c2ccc(Cl)c(Cl)c2)C1=O", 7),
    ("Oc1ccccc1C(c1ccccc1O)C(Cl)(Cl)Cl", 96),
    ("Clc1ccc2[nH]c(-c3ccccc3)c(-c3ccccn3)c2c1", 98),
    ("COC(=O)C12Oc3ccc(-c4ccc5c(c4O)C(O)=C4C(=O)CC(C)C(O)C4(C(=O)OC)O5)c(O)c3C(O)=C1C(=O)CC(C)C2O (stereo not given)", 98),
    ("N#CC(C#N)=C1CCC(CC2CCCCC2)CC1 (stereo not given)", 96),
    ("CC(C)(C)C(=O)/C=C/c1ccc2ccccc2n1", -35),
    ("CCCCCCCCC(C)c1ccccc1O (stereo not given)", 96),
    ("CC(C)CCCC(C)[C@H]1CCC(C2C[C@@H](O)[C@@H]3CC(O)[C@@H](O)C[C@]3(CO)C2=O)[C@]1(C)CCO (stereo not given in full)", 99),
    ("CCCCCCC(C)OC(=O)/C=C/c1ccccc1 (stereo not given)", 10),
    ("CCN(CC)CCNCc1ccccc1", -67),
    ("N/N=C(\\N)c1ccc2ccc3cccnc3c2n1", 77),
    ("CC(=O)OCc1ccc(O)c2ncccc12", 45),
]

----------
test: NCI Yeast Anticancer Drug Screen. Data for the mec2-1 strain (AID 157); conditions: S. cerevisiae mec2-1 strain, at 50.0 µM (retest, dose inferred, filed as 5.0)
This is part of a sample that, as a whole, favours compounds with a hit. Of some 79,000 tested, about 15% had one in any assay. The source made the active and inactive calls. Cut-off read from the data, not from the text of the source: active = growth inhibition above about 70%; inactive = the rest.
Outcomes: true (active), false (inactive)

# COMPOUND, ASSIGNED LABEL
records = [
    ("O=C(/C=C\\c1ccccc1)N1c2ccccc2CC1c1c[nH]c2ccccc12 (stereo not given)", "false"),
    ("CNC(=S)N/N=C/c1nccc(-c2ccccc2)c1C", "true"),
    ("O=Cc1cc(S(=O)(=O)c2ccc(O)c(C=O)c2)ccc1O", "false"),
    ("C=C1C(=O)OC2CC1C(O)C/C(C)=C/CC/C(C)=C/C(O)CC2C (stereo not given)", "true"),
    ("CN(C)c1c([N+](=O)[O-])cc(N2C(=O)C=CC2=O)cc1[N+](=O)[O-]", "true"),
    ("CCCCOc1c(OCCCC)c(=O)c1=O", "true"),
    ("CCCC(O)C[N+](=O)[O-] (stereo not given)", "false"),
    ("CC(=O)OC1C(C)OC(OC(=O)C2CCC3C(C2)OC2(CC(OC(=O)/C=C/c4ccccc4)C(C)CO2)C32CO2)C(OC2OC(C)C(O)C(OC(C)=O)C2O)C1O (stereo not given)", "true"),
    ("Clc1ccc2c(NCCCCCCNc3ccnc4cc(Cl)ccc34)ccnc2c1", "true"),
    ("C=C1C(=O)OC2C1CC1OC2C(C)CCC/C(C)=C\\CCC1(C)O (stereo not given)", "false"),
]
